Molecular target: receptors in rat forebrain (mainly α4β2) (Rattus norvegicus, UniProt P09483+P12390)
Construct: from tissue; host or cells: rat forebrain homogenate
Sequence (P09483 31-630): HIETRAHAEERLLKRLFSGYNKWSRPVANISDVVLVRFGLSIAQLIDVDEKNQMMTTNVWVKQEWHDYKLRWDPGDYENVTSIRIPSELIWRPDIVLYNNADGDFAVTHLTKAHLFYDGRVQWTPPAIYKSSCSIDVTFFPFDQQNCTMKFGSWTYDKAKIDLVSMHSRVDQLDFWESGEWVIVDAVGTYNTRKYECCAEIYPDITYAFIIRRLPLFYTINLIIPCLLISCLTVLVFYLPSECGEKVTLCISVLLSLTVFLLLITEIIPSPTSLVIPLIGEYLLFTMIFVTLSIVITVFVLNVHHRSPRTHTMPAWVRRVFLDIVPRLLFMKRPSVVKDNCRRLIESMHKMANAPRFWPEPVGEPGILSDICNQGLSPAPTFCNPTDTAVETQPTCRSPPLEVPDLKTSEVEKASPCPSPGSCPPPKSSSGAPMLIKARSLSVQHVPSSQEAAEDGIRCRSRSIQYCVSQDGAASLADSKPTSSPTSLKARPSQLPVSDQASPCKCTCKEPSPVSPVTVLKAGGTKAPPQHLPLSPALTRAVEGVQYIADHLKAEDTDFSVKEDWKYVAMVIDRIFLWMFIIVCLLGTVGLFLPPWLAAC
Sequence (P12390 25-500): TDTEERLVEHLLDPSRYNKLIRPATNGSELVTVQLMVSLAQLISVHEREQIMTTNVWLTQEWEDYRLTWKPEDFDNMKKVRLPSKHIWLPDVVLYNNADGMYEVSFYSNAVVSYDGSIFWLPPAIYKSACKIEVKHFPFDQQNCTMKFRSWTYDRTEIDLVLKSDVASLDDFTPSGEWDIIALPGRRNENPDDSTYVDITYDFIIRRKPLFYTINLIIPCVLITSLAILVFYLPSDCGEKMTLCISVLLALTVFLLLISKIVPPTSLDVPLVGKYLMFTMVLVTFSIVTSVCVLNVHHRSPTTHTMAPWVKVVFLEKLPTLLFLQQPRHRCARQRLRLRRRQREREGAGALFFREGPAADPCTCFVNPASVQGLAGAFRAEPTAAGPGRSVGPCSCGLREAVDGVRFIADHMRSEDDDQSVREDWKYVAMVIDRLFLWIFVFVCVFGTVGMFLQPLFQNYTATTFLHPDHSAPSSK
Assay: biochemical
Assay type: binding
Details: Ki α4β2*, Table 5; *Rat forebrain, mainly α4β2
Classes are defined on Ki with ranges 0 (below 4 nM), 1 (4 nM to below 300 nM), 2 (300 nM or more)

# example entries with known answers
FCCCCC#Cc1cncc(OC[C@@H]2CCCN2)c1 [Ligand 42] : 0
COC(=O)c1nc(Cl)ccc1C1CC2CCC1N2 (stereo not shown) [ZW-96] : 2
O=C1CC2CC(c3ccc(Cl)nc3)C1N2 (stereo not shown) [Ligand 5] : 2
Clc1cc2c(cn1)C1(CC2)CC2CCC1N2 (stereo not shown) [Ligand 58a] : 2
OC1C2CCC(N2)C1c1ccc(Cl)nc1 (single isomer, unassigned) [Ligand 3] : 1
FC1CC2CC(c3ccc(Cl)nc3)C1N2 (stereo not shown) [Ligand 11] : 0
O[C@H]1C[C@H]2N[C@@H]1C[C@@H]2c1ccc(Cl)nc1 (relative stereo) [Ligand 6] : 1
OCCCCC#Cc1cncc(C2CC3CCC2N3)c1 (stereo not shown) [Ligand 31] : 0
OC1CC2CC(c3ccc(Cl)nc3)C1N2 (stereo not shown) [Ligand 8] : 1
Clc1cc2c(cn1)C1C3CCC(N3)C1CC2 (stereo not shown) [Ligand 37a] : 2

stdin: Sort into band: Clc1ccc2c(n1)CCC21CC2CCC1N2 (stereo not shown) [Ligand 58b]
stdout: 2

stdin: Input OCCCCC#Cc1cncc(OC[C@@H]2CCCN2)c1 [Ligand 27] ; output its category
stdout: 0

stdin: Which Ki band matches CN1CCC[C@H]1COc1cccnc1 [Ligand 8, reference compound] ?
stdout: 1

stdin: Which of the defined bands does the recorded Ki of FCCCCC#Cc1cncc(OC[C@@H]2CCN2)c1 [Ligand 41] sit within?
stdout: 0

stdin: # bin lookup: classify CCCCCc1cncc(C2CC3CCC2N3)c1 (stereo not shown) [ZW-95] by its Ki
stdout: 0

stdin: # classify by Ki band: c1cncc(OC[C@@H]2CCN2)c1 [Ligand A-85380, reference compound]
stdout: 0

stdin: Into which bin does this compound go? OC1CC2NC1CC2c1ccc(Cl)nc1 (stereo not shown) [Ligand 7]
stdout: 1

stdin: Input O=C1CC2NC1CC2c1ccc(Cl)nc1 (stereo not shown) [Ligand 4] ; output its category
stdout: 2

stdin: The entry to classify is FC1CC2NC1CC2c1ccc(Cl)nc1 (stereo not shown) [Ligand 10] ; which class holds it?
stdout: 0

----------
Molecular target: receptors in rat forebrain (mainly α4β2) (Rattus norvegicus, UniProt P09483+P12390)
Construct: from tissue; host or cells: rat forebrain homogenate
Assay: biochemical
Type: binding
Conditions: read-out: Ki α4β2*; Table 5; *Rat forebrain, mainly α4β2
MEASURED_PARAMETER: Ki (nM)
Express it in nM; write the number only.

stdin: What value of Ki has been recorded for this entry: CN1CCC[C@H]1COc1cncc(C#CCNC(=O)OC(C)(C)C)c1 [Ligand 13]
stdout: 3.71

----------
Target: α2β2 nAChR subtype (Rattus norvegicus, UniProt P12389+P12390)
Construct: expressed in transfected cells
Sequence (P12390 25-500): as above
Sequence (P12389 28-511): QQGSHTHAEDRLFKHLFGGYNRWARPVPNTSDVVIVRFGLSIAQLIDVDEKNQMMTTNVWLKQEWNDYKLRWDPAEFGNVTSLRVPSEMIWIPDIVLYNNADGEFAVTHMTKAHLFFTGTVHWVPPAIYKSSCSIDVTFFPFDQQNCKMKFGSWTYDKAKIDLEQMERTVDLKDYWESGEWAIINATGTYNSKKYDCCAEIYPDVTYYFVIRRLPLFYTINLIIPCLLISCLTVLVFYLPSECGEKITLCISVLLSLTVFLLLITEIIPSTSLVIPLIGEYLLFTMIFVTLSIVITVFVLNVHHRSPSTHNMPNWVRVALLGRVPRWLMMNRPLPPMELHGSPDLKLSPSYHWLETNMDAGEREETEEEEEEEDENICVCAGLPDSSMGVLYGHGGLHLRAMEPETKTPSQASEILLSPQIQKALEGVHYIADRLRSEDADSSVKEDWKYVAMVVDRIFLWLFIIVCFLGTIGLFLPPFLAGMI
Experiment: biochemical
Format: binding
Details: Ki α2β2
MEASURED_PARAMETER: Ki (nM)
Write the value in nM as a bare number.

stdin: So what does the record say about Ki for O[C@H]1[C@H](c2ccc(Cl)nc2)[C@H]2CC[C@@H]1N2 (relative stereo) ?
stdout: 2.5

----------
Molecular target: α4β4 nAChR subtype (Rattus norvegicus, UniProt P09483+P12392)
Construct: expressed in transfected cells
Sequence (P12392 21-495): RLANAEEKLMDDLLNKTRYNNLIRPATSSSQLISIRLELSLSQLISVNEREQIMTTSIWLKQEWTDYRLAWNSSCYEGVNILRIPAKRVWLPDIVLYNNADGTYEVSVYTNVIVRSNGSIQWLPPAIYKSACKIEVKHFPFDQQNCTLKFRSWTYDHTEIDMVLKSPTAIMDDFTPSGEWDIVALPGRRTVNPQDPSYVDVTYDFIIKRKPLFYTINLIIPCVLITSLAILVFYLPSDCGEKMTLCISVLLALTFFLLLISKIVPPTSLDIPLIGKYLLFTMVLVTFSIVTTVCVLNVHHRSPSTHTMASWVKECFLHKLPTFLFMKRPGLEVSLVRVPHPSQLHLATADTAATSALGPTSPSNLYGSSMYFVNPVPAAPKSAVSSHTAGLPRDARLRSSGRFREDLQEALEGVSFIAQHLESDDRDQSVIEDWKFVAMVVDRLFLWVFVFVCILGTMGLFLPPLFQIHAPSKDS
Sequence (P09483 31-630): as the sequence (P09483 31-630) above
Assay: biochemical
Format: binding
Settings: Ki α4β4, Table 5; rat nAChR subtypes
Below is a list of entries, each paired with its recorded Ki value.
Write your answer as a measured quantity: the number, then the unit.

Examples with answers:
OC1CC2CC(c3ccc(Cl)nc3)C1N2 (stereo not drawn) : 45.6 nM
OCCCCC#Cc1cncc(OC[C@@H]2CCCN2)c1 : 778 nM
FC1CC2CC(c3ccc(Cl)nc3)C1N2 (stereo not drawn) : 0.172 nM
Clc1ccc(C2CC3CCC2N3CCN2C3CCC2CC3)cn1 (stereo not drawn) : 84.5 nM
FC1CC2NC1CC2c1ccc(Cl)nc1 (stereo not drawn) : 1.23 nM

stdin: Could you share which Ki value was measured for Clc1cc2c(cn1)C1(CC2)CC2CCC1N2 (stereo not drawn) [Ligand 58a] ?
stdout: 10200 nM

----------
Tested on: receptors in rat forebrain (mainly α4β2)
Assay: biochemical
Assay type: binding
Conditions: Table 3; ratio of the corresponding Ki values
Text: In order to assess the steric and hydropathic effects of the C-5 substituents of the pyridine on the binding affinity and subtype-selectivity at neuronal nicotinic acetylcholine receptors. […] The binding affinity ratios for a ligand, calculated from its affinities at an α subunit paired with either the β2 osubunit or the β4 subunit, represents a measure of the selectivity of that ligand with regard to the β subunits. In Vitro Inhibition of ^3H-Epibatidin Binding […]
Consider the following compounds and their measured Affinity ratio (α3β4/Forbrain) readings.

Solved cases below.
OCCCCC#Cc1cncc(OC[C@@H]2CCCN2)c1 : 14,000
OCCCCC#Cc1ccc(C2CC3CCC2N3)cn1 (centres unmarked) : 2

stdin: What value of Affinity ratio (α3β4/Forbrain) has been recorded for this entry: `FCCCCC#Cc1cncc(OC[C@@H]2CCCN2)c1`
stdout: 2,197

stdin: Name the reported Affinity ratio (α3β4/Forbrain) value associated with the compound `FCCCCC#Cc1cncc(OC[C@@H]2CCN2)c1`
stdout: 15,166

stdin: Requested read-out: Affinity ratio (α3β4/Forbrain). Entry: `OCCCCC#Cc1cncc(OC[C@@H]2CCN2)c1`
stdout: 53,778

----------
Listed next: entries and their corresponding Ki.
Molecular target: α4β2 nAChR subtype (Rattus norvegicus, UniProt P09483+P12390)
Construct: expressed in transfected cells
Test: biochemical
Assay type: binding
// return numeric value only (unit: nM, not printed)

Below are worked cases with known answers.
CN1CCC[C@H]1COc1cncc(C#CCCCCO)c1 : 0.81
O=c1cccc2n1C[C@@H]1CNC[C@H]2C1 [Cytisine, reference compound] : 1.35
O=c1cccc2n1C[C@H]1C[C@@H]2CN(CCCOc2cccnc2)C1 : 3110

stdin: Using the record for CC(N)C#Cc1cncc(OC[C@@H]2CCCN2C)c1 (stereo partly drawn) , report its Ki.
stdout: 7.18

stdin: Fill in the blank: the reported Ki of `O=c1cccc2n1C[C@H]1C[C@@H]2CN(CCCCl)C1` is ____.
stdout: 571

stdin: Would you kindly share the measured Ki for `O=c1cccc2n1C[C@H]1C[C@@H]2CN(CCCN2C[C@@H]3C[C@H](C2)c2cccc(=O)n2C3)C1` ?
stdout: 468

stdin: Entry under review: `CN1CCC[C@H]1COc1cncc(C#CCNC(=O)OC(C)(C)C)c1` . Reported Ki?
stdout: 2.07

stdin: Endpoint output: Ki of `O=c1cccc2n1C[C@H]1C[C@@H]2CN(CCCCCN2C[C@@H]3C[C@H](C2)c2cccc(=O)n2C3)C1` . Value?
stdout: 383

stdin: Which Ki reading was recorded for the molecule `CN1CCC[C@H]1COc1cncc(C#CC(C)(C)O)c1` ?
stdout: 1.34

----------
Recorded pKi values for a group of molecules are listed next.
Target: α4β2 nAChR subtype (Rattus norvegicus, UniProt P09483+P12390)
Construct: expressed in transfected cells
Experiment: biochemical
Assay type: binding
Details: Ki α4β2, Table 6; [3H]-EB 0.099 nM, 0.091 nM; ligand 0.00197-100 μM; n = 1
Keep in mind that pKi stands for -log10 of concentration in molar terms.

CN1CCC[C@H]1COc1cccnc1 [Ligand 8, reference compound] : 8.85

Query molecule follows.
stdin: Fill in: pKi of c1cncc(OC[C@@H]2CCN2)c1 [Ligand A-85380, reference compound] is ___
stdout: 9.85

----------
Molecular target: α2β4 nAChR subtype (Rattus norvegicus, UniProt P12389+P12392)
Construct: expressed in transfected cells
Assay: biochemical
Type: binding
Settings: read-out: Ki α2β4
Listing of recorded pKi by entry.
The value called pKi is obtained by taking minus log10 of the concentration in mol/L.

OC1CC2CC(c3ccc(Cl)nc3)C1N2 (racemic) : 8.23
O=C1CC2CC(c3ccc(Cl)nc3)C1N2 (racemic) : 5.49

stdin: Sample C#Cc1cncc([C@@H]2CCCN2C)c1 [SIB-1508Y, reference compound] — what was its pKi?
stdout: 5.94

----------
# maps each entry to its Ki
Target: α4β4 nAChR subtype (Rattus norvegicus, UniProt P09483+P12392)
Construct: expressed in transfected cells
Assay: biochemical
Format: binding
Settings: Table 5; rat nAChR subtypes; read-out: Ki α4β4
Unit nM implied. Number only.

CCCCC#Cc1cncc(OC[C@@H]2CCCN2C)c1 [Ligand 12] : 1410
CN1CCC[C@H]1COc1cncc(C#CCO)c1 [Ligand 14] : 1690
CN1CCC[C@H]1COc1cncc(C#CCCCCCCCCO)c1 [Ligand 17] : 3560
CN1CCC[C@H]1COc1cncc(C#CC(C)(C)O)c1 [Ligand 15] : 5060
CN1CCC[C@H]1COc1cncc(CCCCCCO)c1 [Ligand 19] : 968

stdin: Lookup: Ki / α4β4 nAChR subtype (Rattus norvegicus, UniProt P09483+P12392) / Clc1ccc(C2CC3CCC2N3CCCN2C3CCC2C(c2ccc(Cl)nc2)C3)cn1 (stereo not drawn) [Ligand 59b, Propane-1,3-N,N′-bisepibatidine]
stdout: 23.3

stdin: Test system α4β4 nAChR subtype (Rattus norvegicus, UniProt P09483+P12392); read-out Ki; what value for C#Cc1cncc(OC[C@@H]2CCCN2C)c1 [Ligand 18] ?
stdout: 473

stdin: For α4β4 nAChR subtype (Rattus norvegicus, UniProt P09483+P12392), provide Ki of CN1CCC[C@H]1COc1cncc(C#CCCCCO)c1 [Ligand 16] please.
stdout: 1270

stdin: Provide the documented Ki with α4β4 nAChR subtype (Rattus norvegicus, UniProt P09483+P12392) as the system for Clc1ccc2c(n1)CCC21CC2CCC1N2 (stereo not drawn) [Ligand 58b]
stdout: 9560
